# protocol: Quantitative High-Throughput drug screen in 47 multiple myeloma cell lines against the NCATS MIPE library collection: PE2_PLB cell viability assay (AID 1919869); also: potency is read from the fitted curve at half-maximal effect; nearly all actives have a fitted effect of over 35% in size
# particulars: PE2_PLB myeloma cells viability, ATP luminescence, 48 h; series mostly up to 45.8 µM
Records with an inconclusive call do not appear. The source made the active and inactive calls. Calls follow the shape of the dose curve; as a rule, active = well fitted cell-killing curve with a large enough effect; inconclusive = small, poorly fitted or top-dose-only effect, or effect the other way; inactive = no such curve, though single readings can be large or run the other way.
Potency overview

CC(C)C[C@H](NC(=O)[C@@H](O)[C@H](N)Cc1ccccc1)C(=O)O : 26.4 µM (active)
COc1cc2nccc(Oc3ccc(NC(=O)NC4CC4)c(Cl)c3)c2cc1C(N)=O : 18.7 µM (active)
Cc1cn[nH]c1 : 4.69 µM (active)

Please examine the following record next.
Problem: Can you share its Potency? I mean this molecule: `OCCC#Cc1nc(-c2ccc(F)cc2)c(-c2ccncc2)n1CCCc1ccccc1`
Result: 20.9 µM (active)
